Test system: MDA-MB-435
ASSAY SUMMARY: NCI tumour cell line growth inhibition, 48 h
READOUT: TGI

Known TGI results, listed for orientation:
C#CCn1c(=O)c2ccccc2n(CC#C)c1=O :: > 10 µM
COc1ccc(CCN=C2NC(=O)/C(=C/c3ccc4ncccc4c3)S2)cc1 :: > 25 µM

Now for a further molecule.
Query: If you can, please state the reported TGI value of CC(=O)N(C(=O)CC(=O)N1N=C(c2ccccc2)C(N=Nc2ccccc2[N+](=O)[O-])C1=O)c1ccc(Cl)cc1 (configuration not stated) .
Response: > 10 µM

====

Tested on: SF-295 CNS
ASSAY SUMMARY: NCI tumour cell line growth inhibition, 48 h
Each entry below lists one item and its recorded TGI value.

c1ccc(NCn2cnc3ccccc32)cc1 :: > 100 µM
NC(N)=Nc1ccc(CC(N)NCC(=O)O)cc1 (stereo unspecified) :: > 25 µM
c1ccc2c(c1)Cn1c-2nc2ccccc21 :: > 100 µM
COC(=O)c1c(C)nc2c1cc(O)c1[nH]c(C)c(C)nc12 :: > 100 µM
Nc1nc2c(c(-c3cccc(Cl)c3)n1)COC/C2=C\c1cccc(Cl)c1 :: > 100 µM

Query: What reported TGI corresponds to `O=C(c1ccccn1)C1(N2CCCCC2)CCCCC1` on SF-295 CNS?
Response: > 100 µM
